- Tgt: influenza A virus minigenome (PB2, PB1, PA, NP proteins) (UniProt P04665)
- Sequence (P04665 whole entry): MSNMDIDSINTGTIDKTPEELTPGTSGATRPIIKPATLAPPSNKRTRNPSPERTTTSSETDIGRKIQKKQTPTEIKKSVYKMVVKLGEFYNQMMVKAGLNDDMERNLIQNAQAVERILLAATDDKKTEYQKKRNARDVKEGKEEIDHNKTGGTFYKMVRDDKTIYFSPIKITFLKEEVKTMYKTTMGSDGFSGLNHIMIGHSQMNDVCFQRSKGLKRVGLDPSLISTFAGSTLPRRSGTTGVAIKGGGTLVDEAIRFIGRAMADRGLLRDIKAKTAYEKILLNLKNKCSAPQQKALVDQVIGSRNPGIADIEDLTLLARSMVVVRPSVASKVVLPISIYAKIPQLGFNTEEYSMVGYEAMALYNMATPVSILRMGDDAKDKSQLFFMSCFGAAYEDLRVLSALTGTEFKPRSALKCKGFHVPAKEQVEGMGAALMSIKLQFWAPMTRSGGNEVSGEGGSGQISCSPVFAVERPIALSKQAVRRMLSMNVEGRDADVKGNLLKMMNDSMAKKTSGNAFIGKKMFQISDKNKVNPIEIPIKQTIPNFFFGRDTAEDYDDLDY
- Format: cell-based
- Test context: read-out: RNP_Hubei B
pIC50: −log10 of the molar value.
Measurement kind: pIC50

INSERT INTO results (molecule, tgt, result) VALUES
  ('NC(=O)c1cc(-c2ccc(OCc3cccnc3)cc2)c(C(F)(F)F)[nH]c1=O [Example 72]', 'influenza A virus minigenome (PB2, PB1, PA, NP proteins) (UniProt P04665)', '4.30 to 4.60'),
  ('NC(=O)c1cc(-c2ccc(OCc3ccc4nonc4c3)cc2)c(C(F)(F)F)[nH]c1=O [Example 71]', 'influenza A virus minigenome (PB2, PB1, PA, NP proteins) (UniProt P04665)', '4.30 to 4.60'),
  ('NC(=O)c1cc(-c2ccc(OCC3CCCOC3)cc2)c(C(F)(F)F)[nH]c1=O (stereo not shown) [Example 102]', 'influenza A virus minigenome (PB2, PB1, PA, NP proteins) (UniProt P04665)', '5.00 to 5.30'),
  ('NC(=O)c1cc(-c2ccc(CN3CCCC3)cc2)c(C(F)(F)F)[nH]c1=O [Example 5]', 'influenza A virus minigenome (PB2, PB1, PA, NP proteins) (UniProt P04665)', '4.30 to 4.60'),
  ('NC(=O)c1cc(-c2ccc(CN3CCOCC3)cc2)c(C(F)(F)F)[nH]c1=O [Example 1]', 'influenza A virus minigenome (PB2, PB1, PA, NP proteins) (UniProt P04665)', '4.30 to 4.60'),
  ('CC(Oc1ccc(-c2cc(C(N)=O)c(=O)[nH]c2C(F)(F)F)cc1)c1cccnc1 (single isomer, unassigned) [Example 80]', 'influenza A virus minigenome (PB2, PB1, PA, NP proteins) (UniProt P04665)', '4.60 to 5.00'),
  ('Cn1nccc1COc1ccc(-c2cc(C(N)=O)c(=O)[nH]c2C(F)(F)F)cc1 [Example 126]', 'influenza A virus minigenome (PB2, PB1, PA, NP proteins) (UniProt P04665)', '4.30 to 4.60');
